measuredTarget: Eis_Msm (Mycolicibacterium smegmatis, UniProt A0QY29)
Assay type: biochemical
assaySetup: read-out: IC50 Eis_Msm; NEO acetylation
property: pIC50
Remember, pIC50 is on a log scale: it is -log10 of the molar concentration.

Request: For the molecule shown here, `[H]/N=C(\N/C(=N/[H])NCCCCCCNC(=N)NC(=N)Nc1ccc(Cl)cc1)Nc1ccc(Cl)cc1` , give the reported pIC50.
Response: 5.73

---

measuredTarget: UniProtKB Q3M362
methodSummary: Number of acetylations of AGs by Eis_Ava
Type: biochemical
assaySetup: mass spectrometry; AG 0.67 mM, AcCoA 6.7 mM, Eis_Ava 10 μM, overnight at rt
property: number of acetylations by Eis_Ava

Request: For the molecule shown here, `[H]/N=C(/N)N[C@H]1[C@H](O)[C@@H](O)[C@H](O[C@@H]2O[C@@H](C)[C@](O)(C=O)[C@H]2O[C@@H]2O[C@@H](CO)[C@H](O)[C@@H](O)[C@@H]2NC)[C@@H](N/C(N)=N\[H])[C@@H]1O` , give the reported number of acetylations by Eis_Ava.
Response: not be substrates

Request: For the molecule shown here, `CN[C@@H]1[C@H](O)[C@H](NC)[C@H]2O[C@@]3(O)C(=O)C[C@@H](C)O[C@H]3O[C@@H]2[C@H]1O` , give the reported number of acetylations by Eis_Ava.
Response: not be substrates
